Parameter viability at 28.5 h, 10 µM: see the listing below.
assay: in vitro; conditions: human, hela cells, % viability
Write it as a number; the unit % goes unstated.

As a guide, the following entries are already answered.
>>> data_value("O=C(NC1CCCC1)C1CCCN1c1nc(O)cc(C(F)(F)F)n1 (stereo not shown)")
83.5
>>> data_value("CCCCOc1ccc(S(=O)(=O)n2ccc3cc(N4CCNCC4)ccc32)cc1 [CBK001315C]")
37.9
>>> data_value("Nc1nc(Nc2ccccc2)nc(C(F)(F)F)n1")
89.8
>>> data_value("O=C(O)c1cc(Cl)c(OCc2cc(-c3ccccc3)no2)c(Cl)c1")
86.7
>>> data_value("CSCCCNC(=O)c1cnn2c(C)c(Cc3ccccc3C)c(C)nc12")
96.7

Find the recorded viability at 28.5 h, 10 µM belonging to Nc1ncnc(Nc2ccc(F)cc2Cl)c1[N+](=O)[O-] and report it.
93.1

Check CCCc1[nH]nc(O)c1CCc1c(Cl)cccc1Cl too.
112

Check Cc1cc2c(o1)c1cnn(CC(=O)N3CCCCCC3)c(=O)c1n2C too.
81.2

Check CC(=O)Nc1ccc(S(=O)(=O)N2CCCCC2C(=O)O)cc1 (stereo not shown) too.
102

Check O=C(O)c1cnc(NCC2CCCCCC2)[nH]c1=O too.
88.8

Origin of the recorded values: paper PMC12040169
